Ref: patent US20190106434A1

- system: Human BACE1(1-460):Fc (Homo sapiens)
- Construct: purified from conditioned media by Protein A
- Sequence (P56817 22-460): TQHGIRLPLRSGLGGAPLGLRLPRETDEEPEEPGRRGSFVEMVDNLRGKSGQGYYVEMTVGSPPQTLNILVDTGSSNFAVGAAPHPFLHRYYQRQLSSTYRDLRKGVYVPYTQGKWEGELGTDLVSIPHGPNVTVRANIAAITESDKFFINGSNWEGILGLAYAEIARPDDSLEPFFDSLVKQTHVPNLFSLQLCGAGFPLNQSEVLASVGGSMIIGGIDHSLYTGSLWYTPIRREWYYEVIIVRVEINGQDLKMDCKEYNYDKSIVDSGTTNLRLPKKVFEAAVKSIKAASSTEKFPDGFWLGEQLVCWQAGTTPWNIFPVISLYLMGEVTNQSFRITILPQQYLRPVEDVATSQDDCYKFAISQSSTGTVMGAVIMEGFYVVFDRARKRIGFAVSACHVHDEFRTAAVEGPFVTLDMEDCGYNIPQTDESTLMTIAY
- experiment summary: BACE1 FRET Assay
- measurement parameters: purified recombinant huBACE1:Fc, FRET substrate based on APP; mean ± standard deviation of the mean, n=12
observable: pIC50
Scale explanation: pIC50 corresponds to minus log10 of a concentration expressed in moles per litre.

# lookup: pIC50 of `CC(F)(F)[C@H]1OC[C@]2(c3cc(NC(=O)c4ccc(C(F)(F)F)cn4)ccc3F)N=C(N)OC[C@H]12`
7.92

* * *

- system: BACE1 activity in SH-SY5YAPP695Wt cells (Homo sapiens, UniProt P56817)
- Construct: endogenous in cells; host or cells: SH-SY5Y (ATCC CRL2266) stably expressing human APP695Wt
- Sequence (P56817 46-501): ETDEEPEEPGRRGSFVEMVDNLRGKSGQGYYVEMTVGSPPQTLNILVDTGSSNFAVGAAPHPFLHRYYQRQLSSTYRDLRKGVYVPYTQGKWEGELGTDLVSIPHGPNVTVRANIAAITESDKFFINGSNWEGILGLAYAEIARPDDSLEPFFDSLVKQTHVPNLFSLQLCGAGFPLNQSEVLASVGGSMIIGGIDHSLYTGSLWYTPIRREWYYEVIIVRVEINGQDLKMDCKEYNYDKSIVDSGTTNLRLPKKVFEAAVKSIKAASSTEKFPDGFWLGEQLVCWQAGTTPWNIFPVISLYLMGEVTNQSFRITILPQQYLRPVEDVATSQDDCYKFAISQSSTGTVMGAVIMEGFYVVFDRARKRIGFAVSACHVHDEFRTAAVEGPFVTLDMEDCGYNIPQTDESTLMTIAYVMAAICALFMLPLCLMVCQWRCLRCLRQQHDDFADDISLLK
- experiment summary: SH-SY5YAPP695Wt Whole Cell Assay (Abeta ELISA)
- Assay type: cell-based
- measurement parameters: 24 hours incubation, conditioned media; n=4; read-out: IC50 for SH-SY5YAPP695Wt A-beta (1-42) ELISA
observable: IC50 (nM)
Express it in nM; write the number only.

What does the record list as IC50 for `CC(F)(F)[C@H]1OC[C@]2(c3cc(NC(=O)c4ccc(C(F)(F)F)cn4)ccc3F)N=C(N)OC[C@H]12` ?
1.28

* * *

- experiment summary: Plasma and CSF compound exposure in cannulated beagle dogs (LC/MS/MS)
- Type: in vivo
- measurement parameters: dog, CSF / free plasma, po; male beagle dogs, 1.0 mg/kg p.o.; free fraction by equilibrium dialysis; read-out: ratio of CSF AUC to free plasma AUC
observable: Kp
Reply with just the number.

Dear colleague, I am looking for the recorded Kp of the following compound: `CC(F)(F)[C@H]1OC[C@]2(c3cc(NC(=O)c4ccc(C(F)(F)F)cn4)ccc3F)N=C(N)OC[C@H]12`
0.17

* * *

- experiment summary: Plasma and CSF compound exposure in cannulated beagle dogs (LC/MS/MS)
- Assay type: in vivo
- measurement parameters: dog, plasma, po; male beagle dogs, 1.0 mg/kg p.o.; read-out: total plasma AUC exposure
observable: AUC (µM·h)
Please give a number only; it is taken to be in µM·h.

Suppose we examine the molecule CC(F)(F)[C@H]1OC[C@]2(c3cc(NC(=O)c4ccc(C(F)(F)F)cn4)ccc3F)N=C(N)OC[C@H]12 [Example 1] ; what AUC value has been reported?
7.96
